Molecular target: T1, human CD28 (human, UniProt P10747 19-220)
T1 construct: whole, on cells; Endogenous CD28 of Jurkat/IL2 reporter cells
Assay: flow cytometry, Jurkat/IL2 reporter cells (endogenous CD28), 33.3 nM, PE anti-human Fc
Overview of reported MFI at 33.3 nM across a group of binders:

binder	MFI at 33.3 nM (MFI)
E35D/M47L/V68M/A71G/L85Q/D90G CD80 IgV-Fc (Fc fusion, not shown: a dimerising Fc or GST) VIHVTKEVKEVATLSCGHNVSVEELAQTRIYWQKDKKMVLTMMSGDLNIWPEYKNRTIFDITNNLSIMILGLRPSDEGTYECVVQKYEKGAFKREHLAEVTLSVKAD	1400
S15T/H18Y/E35D/M47V/T62A/N64S/A71G/L85Q/D90N CD80 IgV-Fc (Fc fusion, not shown: a dimerising Fc or GST) VIHVTKEVKEVATLTCGYNVSVEELAQTRIYWQKDKKMVLTMMSGDVNIWPEYKNRTIFDIANSLSIVILGLRPSDEGTYECVVQKYEKNAFKREHLAEVTLSVKAD	1070
WT CD80 ECD-Fc (Fc fusion, not shown: a dimerising Fc or GST, The label 'H22.6' is not explained; also called WT CD80 ECD-Fc H22.6) VIHVTKEVKEVATLSCGHNVSVEELAQTRIYWQKEKKMVLTMMSGDMNIWPEYKNRTIFDITNNLSIVILALRPSDEGTYECVVLKYEKDAFKREHLAEVTLSVKADFPTPSISDFEIPTSNIRRIICSTSGGFPEPHLSWLENGEELNAINTTVSQDPETELYAVSSKLDFNMTTNHSFMCLIKYGHLRVNQTFNWNTTKQEHFPDN	30
H18Y/V22A/E35D/T41S/M47V/T62N/A71G/A91G CD80 IgV-Fc (Fc fusion, not shown: a dimerising Fc or GST) VIHVTKEVKEVATLSCGYNVSAEELAQTRIYWQKDKKMVLSMMSGDVNIWPEYKNRTIFDINNNLSIVILGLRPSDEGTYECVVLKYEKDGFKREHLAEVTLSVKAD	1590
